Target: Homeobox protein Hox-A13 (Mus musculus)
Experiment: inhibitors of HoxA13-DNA binding, primary screen, biochemical, fluorescence polarization, labeled oligonucleotide (AID 1185)
Conditions: 15 min, higher = more signal, called active from +8 up or from −8 down
Here the recorded z-score is given for each entry.
Number, no unit, nothing else.

Answered examples (5):
CC(=O)NCCCC[C@@H]1NC(=O)[C@H]2C[C@@H](C(=O)NCCCCCC[N+](C)(C)C)[C@@H](c3cccc(OCCO)c3)N2C1=O ... -4.59
COC(=O)C(CC#Cc1ccc2c(c1)[C@]1(C(=O)N2)[C@H](C(=O)NC[C@H](O)c2ccccc2)[C@H]2C(=O)O[C@H](c3ccccc3)[C@H](c3ccccc3)N2[C@@H]1c1ccc(OCCO)cc1)C(=O)OC ... -2.24
Cc1cc(C)c(C(O)C2C=CC3C(=O)N(C)C(=O)C3N2Nc2ccccc2)c(C)c1 (configuration not stated) ... -2.71
COCCOC(=O)N1C(=O)[C@@]2(c3cc(C#CCCO)ccc31)[C@H](C(=O)NC[C@H](O)c1ccccc1)[C@H]1C(=O)O[C@H](c3ccccc3)[C@H](c3ccccc3)N1[C@@H]2c1ccc(O)cc1 ... -3.53
CC(=O)NCCCC[C@@H]1NC(=O)[C@@H]2C[C@H](C(=O)NCCCCCCNC(=O)CS)[C@H](c3ccc(O)cc3)N2C1=O ... -5.16

# get_value(readout='z-score', item= `CN(C)C(=O)[C@@]1(CCC(=O)OC(C)(C)C)N=C(c2ccc(OCCCO)cc2)O[C@H]1c1ccccc1` )
-5.79

# get_value(readout='z-score', item= `CCCNC(=O)[C@@]1(c2ccc([N+](=O)[O-])cc2)CC(=O)N(CC23CC4CC(CC(C4)C2)C3)[C@@H]1c1ccc(CO)cc1` )
-4.89

src = PubChem BioAssay
